Target: T1, human PRLR on cells (human, UniProt P16471 25-622)
T1 construct: Endogenous on T47D cells, transfected in Baf3-hPRLR cells; also called hPRLR; T47D cells
T1 sequence: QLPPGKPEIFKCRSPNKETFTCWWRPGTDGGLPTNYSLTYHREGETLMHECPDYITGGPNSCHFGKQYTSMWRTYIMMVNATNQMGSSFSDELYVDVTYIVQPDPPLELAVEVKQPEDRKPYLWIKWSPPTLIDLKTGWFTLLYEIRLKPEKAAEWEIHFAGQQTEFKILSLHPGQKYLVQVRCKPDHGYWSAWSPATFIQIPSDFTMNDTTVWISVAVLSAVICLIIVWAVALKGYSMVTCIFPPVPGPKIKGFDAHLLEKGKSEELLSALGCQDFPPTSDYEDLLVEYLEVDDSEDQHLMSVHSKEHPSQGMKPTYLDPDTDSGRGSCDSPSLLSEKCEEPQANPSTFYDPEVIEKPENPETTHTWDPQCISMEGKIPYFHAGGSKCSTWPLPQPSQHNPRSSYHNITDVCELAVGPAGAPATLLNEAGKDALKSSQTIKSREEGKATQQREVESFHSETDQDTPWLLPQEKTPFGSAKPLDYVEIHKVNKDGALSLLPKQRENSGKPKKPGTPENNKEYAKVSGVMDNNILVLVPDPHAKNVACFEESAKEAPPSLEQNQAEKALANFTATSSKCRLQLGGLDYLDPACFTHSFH
Test: FACS T47D 10 ug/mL
Observed property: FACS GeoMean-neg
Please give only the number in your answer, with no unit.

For LFA102 (antibody, human IgG1, kappa, V domains shown, humanized IgG1 kappa comparator (WO 2008022295)) VH: EVQLVESGGGLVQPGGSLRLSCAVSGFTFSSYGMSWVRQAPGKRLEWVATVSSGGTYTYYPDSVKGRFTISRDNSKNTLYLQMNSLRAEDTAMYYCARHRGNYYATYYYAMDYWGQGTLVTVSS VL: DIVLTQSPDSLAVSLGERATINCKASKSVSTSGYTYMHWYQQKPGQPPKLLIYLASNRESGVPDRFSGSGSGTDFTLTISPVQAEDVATYYCQHSGELPPSFGQGTKLEIKR , what is its reported FACS GeoMean-neg?
1640
